test: Half life of compound was determined after intravenous dosing at 10 mg/kg in rat; assay type: ADME, organism-based; set-up: dose 10 mg/kg, route intravenous; conditions: in vivo
// boundary case: half-life equal to 50 min maps to N; strictly smaller maps to Y

{"CPD_SMILES": "COC(=O)N[C@@H](C(=O)N1CCC[C@H]1C(=O)NCc1csc(C(=N)N)c1)C(c1ccccc1)c1ccccc1", "ASSIGNED_LABEL": "Y"}
{"CPD_SMILES": "N=C(N)c1ccc(CNC(=O)[C@@H]2CCCN2C(=O)[C@H](NS(N)(=O)=O)C(c2ccccc2)c2ccccc2)cc1", "ASSIGNED_LABEL": "Y"}
{"CPD_SMILES": "COC(=O)N[C@@H](C(=O)N1CCC[C@H]1C(=O)NCc1ccc(C(=N)N)nc1)C(c1ccccc1)c1ccccc1", "ASSIGNED_LABEL": "N"}
{"CPD_SMILES": "COC(=O)N[C@@H](C(=O)N1CCC[C@H]1C(=O)NCc1ccc(C(=N)N)cc1)C(c1ccccc1)c1ccccc1", "ASSIGNED_LABEL": "N"}
{"CPD_SMILES": "N=C(N)c1ccc(CNC(=O)[C@@H]2CCCN2C(=O)[C@H](NS(N)(=O)=O)C(c2ccccc2)c2ccccc2)s1", "ASSIGNED_LABEL": "Y"}
{"CPD_SMILES": "N=C(N)c1ccc(CNC(=O)[C@@H]2CCCN2C(=O)[C@H](NCC(=O)O)C(c2ccccc2)c2ccccc2)s1", "ASSIGNED_LABEL": "Y"}
{"CPD_SMILES": "COC(=O)N[C@@H](C(=O)N1CCC[C@H]1C(=O)NCc1ccc(C(=N)N)s1)C(c1ccccc1)c1ccccc1", "ASSIGNED_LABEL": "N"}

---

assay: In vitro metabolic stability was determined using liver S9 fraction from rat at initial concentration of 20 uM; format: ADME; conditions: read-out: Recovery
Form field: remaining at 20 µM (one value per entry).

{"CPD_SMILES": "COC(=O)N[C@@H](C(=O)N1CCC[C@H]1C(=O)NCc1csc(C(=N)N)c1)C(c1ccccc1)c1ccccc1", "remaining at 20 µM [%]": 49}
{"CPD_SMILES": "N=C(N)c1ccc(CNC(=O)[C@@H]2CCCN2C(=O)[C@H](NCC(=O)O)C(c2ccccc2)c2ccccc2)cc1", "remaining at 20 µM [%]": 87}
{"CPD_SMILES": "N=C(N)c1ccc(CNC(=O)[C@@H]2CCCN2C(=O)[C@H](NS(N)(=O)=O)C(c2ccccc2)c2ccccc2)cc1", "remaining at 20 µM [%]": 90}
{"CPD_SMILES": "COC(=O)N[C@@H](C(=O)N1CCC[C@H]1C(=O)NCc1ccc(C(=N)N)s1)C(c1ccccc1)c1ccccc1", "remaining at 20 µM [%]": 60}
{"CPD_SMILES": "COC(=O)N[C@@H](C(=O)N1CCC[C@H]1C(=O)NCc1ccc(C(=N)N)cc1)C(c1ccccc1)c1ccccc1", "remaining at 20 µM [%]": 80}
{"CPD_SMILES": "N=C(N)c1ccc(CNC(=O)[C@@H]2CCCN2C(=O)[C@H](NS(N)(=O)=O)C(c2ccccc2)c2ccccc2)s1", "remaining at 20 µM [%]": 84}

---

molecular target: Coagulation factor X (Homo sapiens, UniProt P00742); assay: In vitro inhibition constant (Ki) against human Coagulation factor X was determined
Sequence (P00742 41-179 limits assumed): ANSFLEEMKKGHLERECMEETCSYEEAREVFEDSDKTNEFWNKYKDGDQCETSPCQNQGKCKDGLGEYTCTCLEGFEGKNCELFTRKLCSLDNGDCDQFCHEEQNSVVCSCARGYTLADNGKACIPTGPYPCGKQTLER
Sequence (P00742 235-488 limits assumed): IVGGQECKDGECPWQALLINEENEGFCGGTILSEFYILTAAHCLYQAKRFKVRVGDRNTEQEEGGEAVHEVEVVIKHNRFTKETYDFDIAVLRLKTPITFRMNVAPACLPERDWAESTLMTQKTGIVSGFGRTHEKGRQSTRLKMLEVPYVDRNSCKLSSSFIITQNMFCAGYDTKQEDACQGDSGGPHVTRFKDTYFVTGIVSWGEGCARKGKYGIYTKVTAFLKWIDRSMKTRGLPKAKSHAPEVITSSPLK
pKi: −log10 of the molar value.
QUANTITY_MEASURED: pKi

{"CPD_SMILES": "N=C(N)c1ccc(CNC(=O)[C@@H]2CCCN2C(=O)[C@H](NCC(=O)O)C(c2ccccc2)c2ccccc2)s1", "RECORDED_MEASUREMENT": 5.65}

---

species: Rattus norvegicus; test: Ex vivo concentration of inhibitor to double the activated clotting time was measured in rat plasma; assay type: functional
QUANTITY_MEASURED: Concentration to double activated clotting time

{"COMPOUND": "COC(=O)N[C@@H](C(=O)N1CCC[C@H]1C(=O)NCc1ccc(C(=N)N)s1)C(c1ccccc1)c1ccccc1", "RECORDED_MEASUREMENT": "3.75 µM"}
{"COMPOUND": "COC(=O)N[C@@H](C(=O)N1CCC[C@H]1C(=O)NCc1csc(C(=N)N)c1)C(c1ccccc1)c1ccccc1", "RECORDED_MEASUREMENT": "6.86 µM"}
{"COMPOUND": "N=C(N)c1ccc(CNC(=O)[C@@H]2CCCN2C(=O)[C@H](NS(N)(=O)=O)C(c2ccccc2)c2ccccc2)cc1", "RECORDED_MEASUREMENT": "1.23 µM"}
{"COMPOUND": "N=C(N)c1ccc(CNC(=O)[C@@H]2CCCN2C(=O)[C@H](NS(N)(=O)=O)C(c2ccccc2)c2ccccc2)s1", "RECORDED_MEASUREMENT": "2.09 µM"}
{"COMPOUND": "CC1CNc2c(cccc2S(=O)(=O)N[C@@H](CCCNC(=N)N)C(=O)N2CC[C@@H](C)C[C@@H]2C(=O)O)C1 (stereo partly specified)", "RECORDED_MEASUREMENT": "1.97 µM"}
{"COMPOUND": "N=C(N)c1ccc(CNC(=O)[C@@H]2CCCN2C(=O)[C@H](NCC(=O)O)C(c2ccccc2)c2ccccc2)s1", "RECORDED_MEASUREMENT": "0.85 µM"}

---

target: Tissue-type plasminogen activator (Homo sapiens, UniProt P00750)
Sequence (P00750 whole entry): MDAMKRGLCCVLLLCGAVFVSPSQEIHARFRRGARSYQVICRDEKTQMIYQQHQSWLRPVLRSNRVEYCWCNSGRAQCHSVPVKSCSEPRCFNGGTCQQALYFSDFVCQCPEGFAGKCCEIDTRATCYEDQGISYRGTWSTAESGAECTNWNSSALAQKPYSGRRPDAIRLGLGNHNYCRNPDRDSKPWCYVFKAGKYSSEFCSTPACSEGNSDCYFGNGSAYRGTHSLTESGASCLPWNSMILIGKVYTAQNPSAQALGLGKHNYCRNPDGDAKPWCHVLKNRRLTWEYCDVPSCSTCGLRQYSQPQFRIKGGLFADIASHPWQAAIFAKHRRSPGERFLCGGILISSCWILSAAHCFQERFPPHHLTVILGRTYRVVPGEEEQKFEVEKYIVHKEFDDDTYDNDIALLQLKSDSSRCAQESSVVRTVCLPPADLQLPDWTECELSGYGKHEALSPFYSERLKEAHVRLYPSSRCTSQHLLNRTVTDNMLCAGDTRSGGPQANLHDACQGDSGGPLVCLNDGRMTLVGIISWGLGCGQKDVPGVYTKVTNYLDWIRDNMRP
pKi: −log10 of the molar value.
QUANTITY_MEASURED: pKi

{"CPD_SMILES": "N=C(N)c1ccc(CNC(=O)[C@@H]2CCCN2C(=O)[C@H](NCC(=O)O)C(c2ccccc2)c2ccccc2)s1", "MEASUREMENT_TARGET": "Tissue-type plasminogen activator (Homo sapiens, UniProt P00750)", "RECORDED_MEASUREMENT": 6.36}

---

Form field: APTT (one value per entry).
species: Rattus norvegicus; assay: In vitro concentration of inhibitor to double the activated partial thromboplastin time was evaluated in rat; assay type: functional

{"COMPOUND": "N=C(N)c1ccc(CNC(=O)[C@@H]2CCCN2C(=O)[C@H](NS(N)(=O)=O)C(c2ccccc2)c2ccccc2)s1", "APTT": "1.5 µM"}
{"COMPOUND": "COC(=O)N[C@@H](C(=O)N1CCC[C@H]1C(=O)NCc1csc(C(=N)N)c1)C(c1ccccc1)c1ccccc1", "APTT": "5.2 µM"}
{"COMPOUND": "N=C(N)c1ccc(CNC(=O)[C@@H]2CCCN2C(=O)[C@H](NS(N)(=O)=O)C(c2ccccc2)c2ccccc2)cc1", "APTT": "1.24 µM"}
{"COMPOUND": "CC1CNc2c(cccc2S(=O)(=O)N[C@@H](CCCNC(=N)N)C(=O)N2CC[C@@H](C)C[C@@H]2C(=O)O)C1 (stereo not given in full)", "APTT": "2.5 µM"}
{"COMPOUND": "COC(=O)N[C@@H](C(=O)N1CCC[C@H]1C(=O)NCc1ccc(C(=N)N)s1)C(c1ccccc1)c1ccccc1", "APTT": "2.85 µM"}

---

assay: In vitro metabolic stability was determined using liver S9 fraction from human at initial concentration of 20 uM; type: ADME; conditions: liver S9 fraction, read-out: Recovery

{"CPD_SMILES": "COC(=O)N[C@@H](C(=O)N1CCC[C@H]1C(=O)NCc1ccc(C(=N)N)s1)C(c1ccccc1)c1ccccc1", "remaining at 20 µM": "38%"}
{"CPD_SMILES": "N=C(N)c1ccc(CNC(=O)[C@@H]2CCCN2C(=O)[C@H](NCC(=O)O)C(c2ccccc2)c2ccccc2)s1", "remaining at 20 µM": "95%"}
{"CPD_SMILES": "N=C(N)c1ccc(CNC(=O)[C@@H]2CCCN2C(=O)[C@H](NS(N)(=O)=O)C(c2ccccc2)c2ccccc2)s1", "remaining at 20 µM": "86%"}
{"CPD_SMILES": "N=C(N)c1ccc(CNC(=O)[C@@H]2CCCN2C(=O)[C@H](NS(N)(=O)=O)C(c2ccccc2)c2ccccc2)cc1", "remaining at 20 µM": "92%"}
{"CPD_SMILES": "N=C(N)c1ccc(CNC(=O)[C@@H]2CCCN2C(=O)[C@H](NCC(=O)O)C(c2ccccc2)c2ccccc2)cc1", "remaining at 20 µM": "97%"}
{"CPD_SMILES": "COC(=O)N[C@@H](C(=O)N1CCC[C@H]1C(=O)NCc1ccc(C(=N)N)cc1)C(c1ccccc1)c1ccccc1", "remaining at 20 µM": "86%"}
{"CPD_SMILES": "COC(=O)N[C@@H](C(=O)N1CCC[C@H]1C(=O)NCc1csc(C(=N)N)c1)C(c1ccccc1)c1ccccc1", "remaining at 20 µM": "13%"}

---

assay: Clearance value was determined after intravenous dosing at 10 mg/kg in rat; assay type: ADME, organism-based; set-up: dose 10 mg/kg, route intravenous; conditions: in vivo
Form field: clearance (one value per entry).

{"CPD_SMILES": "COC(=O)N[C@@H](C(=O)N1CCC[C@H]1C(=O)NCc1ccc(C(=N)N)s1)C(c1ccccc1)c1ccccc1", "clearance / mL/min/kg": 5.4}
{"CPD_SMILES": "N=C(N)c1ccc(CNC(=O)[C@@H]2CCCN2C(=O)[C@H](NS(N)(=O)=O)C(c2ccccc2)c2ccccc2)s1", "clearance / mL/min/kg": 11.6}
{"CPD_SMILES": "N=C(N)c1csc(CNC(=O)[C@@H]2CCCN2C(=O)[C@H](NCC(=O)O)C(c2ccccc2)c2ccccc2)n1", "clearance / mL/min/kg": 6}
{"CPD_SMILES": "N=C(N)c1ccc(CNC(=O)[C@@H]2CCCN2C(=O)[C@H](NS(N)(=O)=O)C(c2ccccc2)c2ccccc2)cc1", "clearance / mL/min/kg": 8.6}
{"CPD_SMILES": "COC(=O)N[C@@H](C(=O)N1CCC[C@H]1C(=O)NCc1ccc(C(=N)N)nc1)C(c1ccccc1)c1ccccc1", "clearance / mL/min/kg": 2.1}
{"CPD_SMILES": "COC(=O)N[C@@H](C(=O)N1CCC[C@H]1C(=O)NCc1ccc(C(=N)N)cc1)C(c1ccccc1)c1ccccc1", "clearance / mL/min/kg": 3}
{"CPD_SMILES": "N=C(N)c1ccc(CNC(=O)[C@@H]2CCCN2C(=O)[C@H](NCC(=O)O)C(c2ccccc2)c2ccccc2)s1", "clearance / mL/min/kg": 9.6}
{"CPD_SMILES": "COC(=O)N[C@@H](C(=O)N1CCC[C@H]1C(=O)NCc1csc(C(=N)N)c1)C(c1ccccc1)c1ccccc1", "clearance / mL/min/kg": 1.7}
